Conditions: buffer; pH 7.4; 200.0 µM
Entries and their solubility kinetic

>  <compound>
CC(=O)C1=C(O)C(=O)N(Cc2ccco2)C1c1cccc(F)c1 (configuration not stated)

>  <solubility kinetic>
> 47.3 µg/mL

$$$$
>  <compound>
CCN(CC)CCCNc1ncnc2scc(-c3ccc(F)cc3)c12

>  <solubility kinetic>
> 53.8 µg/mL

$$$$
>  <compound>
C=CCNC(=S)N1CCOCC1

>  <solubility kinetic>
> 27.9 µg/mL

$$$$
>  <compound>
O=C(O)c1ccc(Nc2ccc(F)c(F)c2)c([N+](=O)[O-])c1

>  <solubility kinetic>
> 44.1 µg/mL

$$$$
>  <compound>
N/C(=N\OC(=O)C1CCCCC1)c1cccc(Br)c1

>  <solubility kinetic>
3.5 µg/mL

$$$$

For the compound shown here, `COc1ccc(CNc2nc3ccccc3n2C)c(OC)c1` , give the reported solubility kinetic.
> 44.6 µg/mL

Same for `Cc1cccn2cc(CCNC(=O)c3cccs3)nc12`
> 42.8 µg/mL
